Test system: KB oral carcinoma cell line
experiment.description: Cell growth inhibition, KB cells
Format: cell-based
stated.conditions: Homo sapiens, KB, read-out: Cell Growth Inhibition IC50
recorded.metric: IC50 (nM)
Numbers only, in nM.

query: Lab request: please report IC50 under test system KB oral carcinoma cell line for CC[C@@]1(O)C(=O)OCc2c1cc1n(c2=O)Cc2c-1nc1ccccc1c2/C=N/c1ccccc1N[C@@H]1c2cc3c(cc2[C@@H](c2cc(OC)c(O)c(OC)c2)[C@H]2C(=O)OC[C@@H]21)OCO3 [Compound S-2]
result: 14
